Attribution: ChEMBL document CHEMBL4190309

# System: DNA
# Procedure Text: Induction of Escherichia coli DNA cleavage at 8 uM after 1 hr by […] staining-based agarose gel electrophoresis
# Type: nucleic-acid assay
Activity calls are given as the source filed them. The rule behind the calls is not given here.
Readout Kind: Activity

See these solved cases before continuing.
O=C(OCCCl)C1=C2c3ccccc3S(=O)(=O)N2CC1 Active
CCOC(=O)C1=C2c3ccccc3S(=O)(=O)N2CC1 Active
CC1(C)[C@H]2CC[C@]1(C)[C@H](OC(=O)C1=C3c4ccccc4S(=O)(=O)N3CC1)C2 Active
O=C(Nc1ccc([N+](=O)[O-])cc1)C1=C2c3ccccc3S(=O)(=O)N2CC1 Active
CC(C)[C@@H]1CC[C@@H](C)C[C@H]1OC(=O)C1=C2c3ccccc3S(=O)(=O)N2CC1 Active

Fill in: Activity of COC(=O)C1=C2c3ccccc3S(=O)(=O)N2CC1 is ___
Active

Fill in: Activity of COc1ccc(NC(=O)C2=C3c4ccccc4S(=O)(=O)N3CC2)cc1 is ___
Active

###

# System: Pseudomonas aeruginosa
# Procedure Text: Antibacterial activity against Pseudomonas aeruginosa ATCC 27853 after 24 hrs by serial dilution method
# Type: functional
# Stated Conditions: ATCC 27853, 24 h
Readout Kind: MIC (mg/L)

Cc1ccccc1NC(=O)C1=C2c3ccccc3S(=O)(=O)N2CC1 17
O=C(Nc1ccc([N+](=O)[O-])cc1)C1=C2c3ccccc3S(=O)(=O)N2CC1 19
O=C(Nc1ccccc1)C1=C2c3ccccc3S(=O)(=O)N2CC1 28

I. CCOC(=O)C1=C2c3ccccc3S(=O)(=O)N2CC1
II. CC1(C)[C@H]2CC[C@]1(C)[C@H](OC(=O)C1=C3c4ccccc4S(=O)(=O)N3CC1)C2
Larger number for MIC: I , or II ? // caller expects the label of the chosen entry
II
(II: 27 mg/L, I: 15 mg/L)

###

# Tested on: Escherichia coli
# Procedure Text: Antibacterial activity against Escherichia coli ATCC 25922 after 24 hrs by serial dilution method
# Format: functional
# Stated Conditions: ATCC 25922, 24 h
Readout Kind: MIC (µg/mL)

O=C(OCCCl)C1=C2c3ccccc3S(=O)(=O)N2CC1 21

a. CC1(C)[C@H]2CC[C@]1(C)[C@H](OC(=O)C1=C3c4ccccc4S(=O)(=O)N3CC1)C2
b. COC(=O)C1=C2c3ccccc3S(=O)(=O)N2CC1
Smaller MIC value? Options are a and b // caller expects the label of the chosen entry
b
